Data origin: PubChem BioAssay (NCI)

- assay protocol: NCI Yeast Anticancer Drug Screen. Data for the mlh1 rad18 strain (AID 175)
- assay conditions: S. cerevisiae mlh1 rad18 strain growth inhibition; at 50.0 µM
The panel holds about 79,000 compounds, 15% with a hit somewhere; the sample as a whole holds those more often. Active and inactive are the calls of the source. Cut-off read from the data, not from the text of the source: active = growth inhibition above about 70%; inactive = the rest.
Classes to choose from: label 1 (active), label 0 (inactive)

compound | assigned label
O=[N+]([O-])c1cccc(/C=C/C=C/c2ccc(Cl)c(Cl)c2)c1 | label 0
CCSc1n[nH]c(=S)c2nc[nH]c12 | label 0
Cc1cccc(-c2nnc3s/c(=C\c4ccc(N(C)C)cc4)c(=O)n23)c1 | label 0

In this assay, the call recorded for "CC(=O)OCCOCCCl" was what?
label 0

In this assay, the call recorded for "O=[N+]([O-])c1ccc(-c2noc(-c3ccccc3)c2C2=NCCN2)cc1" was what?
label 0

In this assay, the call recorded for Cc1cn(C2CC(O)C(CO)O2)c(=O)nc1N1CCCCCCC1 (configuration not stated) was what?
label 0

In this assay, the call recorded for "Nc1ccc(S(=O)(=O)O)cc1" was what?
label 0

In this assay, the call recorded for "C[CH2][Ge]([CH2]C)[CH2]C.C[CH2][Ge]([Cl])[CH2]C" was what?
label 1
